Entry source: patent US11274082B2

Listed next: entries and their corresponding EC50.
test system: TEAD; assay: TEAD reporter assay (Hippo Pathway TEAD Reporter - MCF7 cell line, luciferase); assay type: cell-based; conditions: Homo sapiens; TEAD Reporter - MCF7 cells; read-out: TEAD Reporter Assay EC50

Check out these entries, answers already filled in.
Compound: CNS(=O)(=O)c1ccc(N[C@H]2CCc3ccccc32)c(-c2cn(C)cn2)c1 (single isomer, unassigned) [I-58]
Test Target: TEAD
EC50: > 500 nM
//
Compound: CC(C)NS(=O)(=O)c1ccc(Nc2cc(C(F)(F)F)ccn2)c(-c2cn(C)cn2)c1 [I-66]
Test Target: TEAD
EC50: > 500 nM
//
Compound: CNS(=O)(=O)c1ccc(NCc2ccc3ncsc3c2)c(-c2cn(C)cn2)c1 [I-73]
Test Target: TEAD
EC50: > 500 nM

The record that follows has no EC50 shown yet.
Request: Identify measured EC50 associated with Cn1cnc(-c2cc(S(C)(=O)=O)ccc2NCc2ccccc2)c1 [I-44]
Result: > 500 nM

---

Listed next: entries and their corresponding EC50.
test system: TEAD; experiment: TEAD reporter assay (Hippo Pathway TEAD Reporter - MCF7 cell line, luciferase); format: cell-based; conditions: Homo sapiens; TEAD Reporter - MCF7 cells; read-out: TEAD Reporter Assay EC50

Check out these entries, answers already filled in.
Compound: CNS(=O)(=O)c1ccc(N[C@H](C)c2ccc(C(F)(F)F)cc2)c(-c2cn(C)cn2)c1 [I-56]
Experimental Endpoint: EC50
Result Value: 100 to 500 nM
//
Compound: CNS(=O)(=O)c1ccc(Nc2ncc(C(F)(F)F)cn2)c(-c2cn(C)cn2)c1 [I-78]
Experimental Endpoint: EC50
Result Value: < 100 nM
//
Compound: CNS(=O)(=O)c1ccc(N[C@@H](C)c2ccccc2)c(-c2cn(C)cn2)c1 [I-28]
Experimental Endpoint: EC50
Result Value: > 500 nM
//
Compound: CNS(=O)(=O)c1ccc(Nc2ccc(C(F)(F)F)cn2)c(-c2cn(C3CCC3)cn2)c1 [I-67]
Experimental Endpoint: EC50
Result Value: < 100 nM

The record that follows has no EC50 shown yet.
Request: Identify measured EC50 associated with CNS(=O)(=O)c1ccc(NCc2ccc(C(F)(F)F)cc2)c(-c2cn(C)cn2)c1 [I-32]
Result: < 100 nM

---

test system: TEAD; experiment: TEAD reporter assay (Hippo Pathway TEAD Reporter - MCF7 cell line, luciferase); format: cell-based; details: Homo sapiens; TEAD Reporter - MCF7 cells; read-out: TEAD Reporter Assay EC50
Experimental Endpoint: EC50

Check out these entries, answers already filled in.
Smi: CNS(=O)(=O)c1ccc(NCc2ccc(C(F)(F)F)nc2)c(-c2cn(C)cn2)c1
EC50: > 500 nM
--
Smi: CNS(=O)(=O)c1ccc(NCc2ccc3c(c2)OCO3)c(-c2cn(C)cn2)c1
EC50: 100 to 500 nM
--
Smi: CNS(=O)(=O)c1ccc(N[C@@H]2CCCc3ccccc32)c(-c2cn(C)cn2)c1
EC50: 100 to 500 nM
--
Smi: CNS(=O)(=O)c1ccc(Nc2ccc(C(F)(F)F)nc2)c(-c2cn(C)cn2)c1
EC50: < 100 nM

The record that follows has no EC50 shown yet.
Request: Identify measured EC50 associated with CNS(=O)(=O)c1ccc(Nc2cc(C(F)(F)F)ccn2)c(-c2cn(C(C)C)cn2)c1
Result: 100 to 500 nM
